- Tested on: Vero
- METHOD SUMMARY: Cytotoxicity against African green monkey Vero cells incubated for 24 hrs by MTT assay
- Type: cell-based
- CONDITIONS USED: Chlorocebus sabaeus
REPORTED METRIC: IC50

Solved cases (5 shown):
MOLECULE	TARGET ENTITY	IC50
CCOc1cc(/C=N/NC(=O)c2ccncc2)ccc1OC(=O)CC1SC(=O)NC1=O (stereo not drawn)	Vero	50.9 µg/mL
O=C(/C=C1/SC(=O)NC1=O)Oc1ccccc1/C=N/NC(=O)c1ccncc1	Vero	> 200 µg/mL
O=C(/C=C1/SC(=O)NC1=O)Oc1cccc(/C=N\NC(=O)c2ccncc2)c1	Vero	143 µg/mL
CO[C@H]1/C=C/O[C@@]2(C)Oc3c(C)c(O)c4c(O)c(c(/C=N/N5CCN(C)CC5)c(O)c4c3C2=O)NC(=O)/C(C)=C\C=C\[C@H](C)[C@H](O)[C@@H](C)[C@@H](O)[C@@H](C)[C@H](OC(C)=O)[C@@H]1C	Vero	138 µg/mL
O=C(CC1SC(=O)NC1=O)Oc1ccc(/C=N/NC(=O)c2ccncc2)cc1 (stereo not drawn)	Vero	91.7 µg/mL

The recorded IC50 for entry O=C(CC1SC(=O)NC1=O)Oc1ccc(/C=N/NC(=O)c2ccncc2)cc1Cl (stereo not drawn) equals 31.9 µg/mL

The recorded IC50 for entry COc1cc(/C=N/NC(=O)c2ccncc2)ccc1OC(=O)CC1SC(=O)NC1=O (stereo not drawn) equals 203 µg/mL

The recorded IC50 for entry O=C(CC1SC(=O)NC1=O)Oc1ccc(/C=N/NC(=O)c2ccncc2)cc1Br (stereo not drawn) equals 190 µg/mL
